B1: PBXIP1 (parent)
chain: LPVETLGPASRMDPESERALQAPH

# Variants of: B1
# Assay Info: protein stability index of a GFP-peptide fusion (GPS, HEK-293T) (PSI 1-6); higher = more stable;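 further: lentivirally expressed fusions sorted by FACS into six bins by GFP to DsRed ratio, PSI derived from sequencing read proportions per bin multiplied by bin number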
# Assay Context: c terminus: a fixed tail appended
The following variants are listed with their measured protein stability index values.
Enter a number only.

variant_spec=S16A assay_endpoint="protein stability index" measured=4.16
variant_spec=E15K assay_endpoint="protein stability index" measured=4.04
variant_spec=P8N assay_endpoint="protein stability index" measured=5.28
variant_spec=R18V assay_endpoint="protein stability index" measured=4.45
variant_spec=P2T assay_endpoint="protein stability index" measured=4.36

Turning now to a further variant:
Record S10M . Reported protein stability index: 4.3
